// reported relative viability per item
test system: NCI-H661; assay: relative viability (nuclei count vs DMSO), 5 days (fraction); higher = more cells survive; settings: first compound 2.53 µM
Give the figure only, with no unit attached.

These solved cases illustrate the format of a correct answer.
molecule | result
Oc1nc(-c2ccc(C(F)(F)F)cc2)nc2c1CSCC2 [XAV939] + COc1cccc2cc(-c3nc([C@H]4CC[C@H](C(=O)O)CC4)n4ncnc(N)c34)[nH]c12 [OSI-027] (partner 0.5 µM) | 0.583
C=C1C(=O)O[C@@H](CCCCCCCC)[C@@H]1C(=O)O [C-75] + N=C(N)NC(=N)NCCc1ccccc1 [Phenformin] (partner 250 µM) | 0.237
C=C1C(=O)O[C@@H](CCCCCCCC)[C@@H]1C(=O)O [C-75] + CCNC(=O)c1noc(-c2cc(C(C)C)c(O)cc2O)c1-c1ccc(CN2CCOCC2)cc1 [Luminespib] (partner 0.01 µM) | 0.869
Oc1nc(-c2ccc(C(F)(F)F)cc2)nc2c1CSCC2 [XAV939] + Cc1cc(Nc2cc(N3CCN(C)CC3)nc(Sc3ccc(NC(=O)C4CC4)cc3)n2)n[nH]1 [Tozasertib] (partner 0.1 µM) | 0.339

# next molecule below
Problem: Look up relative viability: Oc1nc(-c2ccc(C(F)(F)F)cc2)nc2c1CSCC2 [XAV939] + CS(=O)(=O)N1CCN(Cc2cc3nc(-c4cccc5[nH]ncc45)nc(N4CCOCC4)c3s2)CC1 [Pictilisib] (partner 1 µM)
Result: 0.267

###

system: LCLC-103H; experiment: relative viability (nuclei count vs DMSO), 5 days (fraction); higher = more cells survive; conditions: first compound 0.3162 µM
// reported relative viability per item
Give the figure only, with no unit attached.

Problem: Look up relative viability: NC(=O)Nc1cc(-c2cccc(F)c2)sc1C(=O)N[C@H]1CCCNC1 [AZD7762] + Cc1cc(Nc2cc(N3CCN(C)CC3)nc(Sc3ccc(NC(=O)C4CC4)cc3)n2)n[nH]1 [Tozasertib] (partner 0.1 µM)
Result: 0.516

Problem: Moving on to NC(=O)Nc1cc(-c2cccc(F)c2)sc1C(=O)N[C@H]1CCCNC1 [AZD7762] + CC(=O)Nc1cccc(-n2c(=O)n(C3CC3)c(=O)c3c(Nc4ccc(I)cc4F)n(C)c(=O)c(C)c32)c1 [Trametinib] (partner 0.02 µM)
Result: 0.574

Problem: Moving on to NC(=O)Nc1cc(-c2cccc(F)c2)sc1C(=O)N[C@H]1CCCNC1 [AZD7762] + O=C(c1cc(Cc2n[nH]c(=O)c3ccccc23)ccc1F)N1CCN(C(=O)C2CC2)CC1 [Olaparib] (partner 8 µM)
Result: 0.772

###

test system: NCI-H1437; assay: relative viability (nuclei count vs DMSO), 5 days (fraction); higher = more cells survive; conditions: first compound 0.05 µM
observation_type: relative viability

These solved cases illustrate the format of a correct answer.
compound | result
CC1(C)CCC(c2ccc(Cl)cc2)=C(CN2CCN(c3ccc(C(=O)NS(=O)(=O)c4ccc(N[C@H](CCN5CCOCC5)CSc5ccccc5)c(S(=O)(=O)C(F)(F)F)c4)cc3)CC2)C1 [Navitoclax] + Cc1nc(NC(=O)N2CCC[C@H]2C(N)=O)sc1-c1ccnc(C(C)(C)C(F)(F)F)c1 [Alpelisib] (partner 2 µM) | 0.98
CC1(C)CCC(c2ccc(Cl)cc2)=C(CN2CCN(c3ccc(C(=O)NS(=O)(=O)c4ccc(N[C@H](CCN5CCOCC5)CSc5ccccc5)c(S(=O)(=O)C(F)(F)F)c4)cc3)CC2)C1 [Navitoclax] + C[C@@H](Oc1cc(-c2cnn(C3CCNCC3)c2)cnc1N)c1c(Cl)ccc(F)c1Cl [Crizotinib] (partner 1 µM) | 0.892

# next compound below
Problem: Look up relative viability: CC1(C)CCC(c2ccc(Cl)cc2)=C(CN2CCN(c3ccc(C(=O)NS(=O)(=O)c4ccc(N[C@H](CCN5CCOCC5)CSc5ccccc5)c(S(=O)(=O)C(F)(F)F)c4)cc3)CC2)C1 [Navitoclax] + COc1cccc2cc(-c3nc([C@H]4CC[C@H](C(=O)O)CC4)n4ncnc(N)c34)[nH]c12 [OSI-027] (partner 0.5 µM)
Result: 0.932
